B1: PLK2 (parent)
chain: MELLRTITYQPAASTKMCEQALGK

variants of: B1; test: protein stability index of a GFP-peptide fusion (GPS, HEK-293T) (PSI 1-6); higher = more stable; conditions: c terminus: a fixed tail appended;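 also: lentivirally expressed fusions sorted by FACS into six bins by GFP to DsRed ratio, PSI derived from sequencing read proportions per bin multiplied by bin number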
measured_parameter: protein stability index
One number for each entry.

Here's what some known entries look like.
| changes | measured_parameter | observed_measurement |
| --- | --- | --- |
| I7R | protein stability index | 3.09 |
| L4G | protein stability index | 3.76 |
| Y9R | protein stability index | 2.19 |
| T8A | protein stability index | 2.94 |
| S14H | protein stability index | 3.11 |
| P11L | protein stability index | 4.39 |

Give protein stability index for each of the items listed below.
1. Q20I
2. E19L
3. T15A
4. P11V
5. T6M

## Output
2.18
2.52
2.17
3.59
1.73
